Target: T1, human TL1A extracellular domain with N-terminal HIS and FLAG tag (human, UniProt O95150 72-251)
T1 construct: whole entry named. ~70 kDa fraction purified by gel filtration
T1 sequence: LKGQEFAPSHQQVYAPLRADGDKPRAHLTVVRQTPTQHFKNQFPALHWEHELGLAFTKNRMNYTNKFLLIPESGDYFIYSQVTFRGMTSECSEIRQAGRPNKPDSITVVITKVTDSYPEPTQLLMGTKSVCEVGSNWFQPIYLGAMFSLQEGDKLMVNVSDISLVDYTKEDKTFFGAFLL
Assay: SPR run 3; supernatant on Protein A; TL1A 10 ug/mL; timepoint 59
reportedMetric: TL1A Binding Level (Early)

[[record]]
binder = "320-303 (antibody, human IgG1, name in Kabat numbering, V domains shown, human IgG1, lambda) VH: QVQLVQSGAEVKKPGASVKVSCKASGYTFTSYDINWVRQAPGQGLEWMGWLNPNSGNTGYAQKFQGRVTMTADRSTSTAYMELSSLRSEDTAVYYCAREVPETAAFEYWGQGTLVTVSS VL: QSVLTQPPSVSGAPGQRVTISCTSSSSDIGAGLGVSWYQQLPGTAPKLLIEGYYNRPSGVPDRFSGSKSGTSASLTITGLLPEDEGDYYCQSYDGTLSALFGGGTKLTVLG"
value = "71 RU"

[[record]]
binder = "320-304 (antibody, human IgG1, name in Kabat numbering, V domains shown, human IgG1, lambda) VH: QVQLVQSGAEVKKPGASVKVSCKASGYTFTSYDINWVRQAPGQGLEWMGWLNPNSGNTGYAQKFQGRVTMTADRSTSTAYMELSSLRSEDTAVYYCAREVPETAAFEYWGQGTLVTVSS VL: QSVLTQPPSVSGAPGQRVTISCTSSSSDIGAGLGVQWYQQLPGTAPKLLIEGYYNRPSGVPDRFSGSKSGTSASLTITGLLPEDEGDYYCQSYDGTLSALFGGGTKLTVLG"
value = "103 RU"

